System: Chordin-like protein 2 (CHRDL2)
Assay: compounds binding chordin-like 2 – biochemical, small-molecule microarray, 635 nm fluorescence, primary screen (AID 1126);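 also: printed compound slides probed with Chrdl2 protein at 4 µg/mL for 1 h at 4 C; score merges 667 nm emission intensity with signal to noise over three replicate slides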
Details: fluorescence 635 nm, higher = more signal
# composite z-score listing for each entry below

molecule: COc1cccc(C)c1NC(=O)O[C@H]1[C@H](OC(=O)Nc2ccccc2-c2ccccc2)[C@H](OC(=O)Nc2ccccc2-c2ccccc2)[C@@H](OC)O[C@@H]1CO
composite z-score: 0.494
//
molecule: C=CCNC(=O)[C@@H]1[C@H]2C(=O)O[C@H](c3ccccc3)[C@H](c3ccccc3)N2[C@H](c2ccccc2OCCO)[C@@]12C(=O)Nc1ccc(C#CCC(C(=O)OC)C(=O)OC)cc12
composite z-score: -0.14
//
molecule: O=C1OCCC/C=C\[C@H]2OC34C=CCN(c5ccc6ccccc6c5)C(=O)[C@H]3N(CCO)C(=O)[C@@H]4C12 (some centres not stated)
composite z-score: -2.13
//
molecule: CCOC(=O)C1=C[C@@H](C(C)C)N(S(=O)(=O)c2ccc(C)cc2)[C@H]1c1ccc(C(F)(F)F)cc1
composite z-score: 0.106
//
molecule: COC(=O)[C@@]1(Cc2ccc(OC)cc2)[C@H]2c3cc(C(=O)N4CCCC4)n(CCc4c[nH]c5ccc(OC)cc45)c3C[C@H]2CN1C(=O)c1ccccc1
composite z-score: -1.04
//
molecule: O=C1CS(=O)(=O)C(c2cccc([N+](=O)[O-])c2)N1c1ccccc1 (configuration not stated)
composite z-score: 0.527
//
molecule: CC[C@@H]1C=C(C(=O)O)[C@H](c2ccc(C#N)cc2)N1S(=O)(=O)c1ccc(C)cc1
composite z-score: -1.52

====

Experiment: small molecules captured by biotinylated probe aFGF2 – biochemical, small-molecule microarray, fluorescence 635/667, stem cell growth factor project, primary screen (AID 1067);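 also: measures binding of biotinylated aFGF2 protein to printed compounds on slides; z-score merges feature fluorescence and signal-to-noise across triplicate slides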
Settings: higher = more signal
reported-property: composite z-score

compound: CCOC(=O)C[C@H]1[C@H](OC(=O)c2ccc(C(=O)c3ccccc3)cc2)[C@@H](NC(=O)c2ccc(-c3ccccc3)cc2)c2cc(OCCCO)ccc2N1C(=O)Cc1ccc(OC)cc1
measured: -0.0364
//
compound: CS(=O)(=O)CCOC(=O)C1=CC(CCCO)=CC(c2ccc(CN3CCCC3)cc2)N(Cc2sc3ccccc3c2Cl)C=C1C(=O)OCCS(C)(=O)=O (stereo not drawn)
measured: 0.198
//
compound: CCCCN1CC=CC23O[C@@H]4/C=C\CCC(C)OC(=O)C4[C@H]2C(=O)N(CCCO)[C@@H]3C1=O (stereo partly drawn)
measured: -0.195
//
compound: COc1cc(C(O)C2C=CC3C(=O)N(C)C(=O)C3N2Nc2ccccc2)cc(OC)c1OC (stereo not drawn)
measured: 0.341
//
compound: COc1ccc(CCNC(=O)[C@@]2(Cc3ccccc3I)c3ccccc3C(=O)N(C3CCCCC3)[C@H]2c2ccc(CO)cc2)cc1
measured: -0.079
//
compound: C=CCNC(=O)[C@@H]1[C@H]2C(=O)O[C@H](c3ccccc3)[C@H](c3ccccc3)N2[C@H](c2ccc(O)cc2)[C@@]12C(=O)N(C(=O)OCCOC)c1ccc(C#CC3=CCCCC3)cc12
measured: -0.021
//
compound: N#Cc1ccc(NN2C(C(O)c3ccc(Br)cc3)C=CC3C(=O)N(c4ccccc4)C(=O)C32)cc1 (stereo not drawn)
measured: 0.254
//
compound: CCOC(=O)C[C@H]1[C@H](OC(=O)c2ccc(-c3ccccc3)cc2)[C@@H](NC(=O)CC(C)C)c2cc(OCCCO)ccc2N1C(=O)c1ccc2ccccc2n1
measured: -0.149

Where do the numbers come from? From PubChem BioAssay.
